Quick reference for pIC50 among some compounds
molecular target: human NaV1.8 (Homo sapiens, UniProt Q9Y5Y9); assay: Electrophysiology: voltage-clamp recordings, whole-cell patch clamp on Qube384 automated platform; conditions: HEK-NaV1.8 (NM 006514.1) with b3 recombinant cell line, multi hole plates, ambient room temperature, read-out: Potency category (human NaV1.8 IC50)
Sequence (Q9Y5Y9 whole entry): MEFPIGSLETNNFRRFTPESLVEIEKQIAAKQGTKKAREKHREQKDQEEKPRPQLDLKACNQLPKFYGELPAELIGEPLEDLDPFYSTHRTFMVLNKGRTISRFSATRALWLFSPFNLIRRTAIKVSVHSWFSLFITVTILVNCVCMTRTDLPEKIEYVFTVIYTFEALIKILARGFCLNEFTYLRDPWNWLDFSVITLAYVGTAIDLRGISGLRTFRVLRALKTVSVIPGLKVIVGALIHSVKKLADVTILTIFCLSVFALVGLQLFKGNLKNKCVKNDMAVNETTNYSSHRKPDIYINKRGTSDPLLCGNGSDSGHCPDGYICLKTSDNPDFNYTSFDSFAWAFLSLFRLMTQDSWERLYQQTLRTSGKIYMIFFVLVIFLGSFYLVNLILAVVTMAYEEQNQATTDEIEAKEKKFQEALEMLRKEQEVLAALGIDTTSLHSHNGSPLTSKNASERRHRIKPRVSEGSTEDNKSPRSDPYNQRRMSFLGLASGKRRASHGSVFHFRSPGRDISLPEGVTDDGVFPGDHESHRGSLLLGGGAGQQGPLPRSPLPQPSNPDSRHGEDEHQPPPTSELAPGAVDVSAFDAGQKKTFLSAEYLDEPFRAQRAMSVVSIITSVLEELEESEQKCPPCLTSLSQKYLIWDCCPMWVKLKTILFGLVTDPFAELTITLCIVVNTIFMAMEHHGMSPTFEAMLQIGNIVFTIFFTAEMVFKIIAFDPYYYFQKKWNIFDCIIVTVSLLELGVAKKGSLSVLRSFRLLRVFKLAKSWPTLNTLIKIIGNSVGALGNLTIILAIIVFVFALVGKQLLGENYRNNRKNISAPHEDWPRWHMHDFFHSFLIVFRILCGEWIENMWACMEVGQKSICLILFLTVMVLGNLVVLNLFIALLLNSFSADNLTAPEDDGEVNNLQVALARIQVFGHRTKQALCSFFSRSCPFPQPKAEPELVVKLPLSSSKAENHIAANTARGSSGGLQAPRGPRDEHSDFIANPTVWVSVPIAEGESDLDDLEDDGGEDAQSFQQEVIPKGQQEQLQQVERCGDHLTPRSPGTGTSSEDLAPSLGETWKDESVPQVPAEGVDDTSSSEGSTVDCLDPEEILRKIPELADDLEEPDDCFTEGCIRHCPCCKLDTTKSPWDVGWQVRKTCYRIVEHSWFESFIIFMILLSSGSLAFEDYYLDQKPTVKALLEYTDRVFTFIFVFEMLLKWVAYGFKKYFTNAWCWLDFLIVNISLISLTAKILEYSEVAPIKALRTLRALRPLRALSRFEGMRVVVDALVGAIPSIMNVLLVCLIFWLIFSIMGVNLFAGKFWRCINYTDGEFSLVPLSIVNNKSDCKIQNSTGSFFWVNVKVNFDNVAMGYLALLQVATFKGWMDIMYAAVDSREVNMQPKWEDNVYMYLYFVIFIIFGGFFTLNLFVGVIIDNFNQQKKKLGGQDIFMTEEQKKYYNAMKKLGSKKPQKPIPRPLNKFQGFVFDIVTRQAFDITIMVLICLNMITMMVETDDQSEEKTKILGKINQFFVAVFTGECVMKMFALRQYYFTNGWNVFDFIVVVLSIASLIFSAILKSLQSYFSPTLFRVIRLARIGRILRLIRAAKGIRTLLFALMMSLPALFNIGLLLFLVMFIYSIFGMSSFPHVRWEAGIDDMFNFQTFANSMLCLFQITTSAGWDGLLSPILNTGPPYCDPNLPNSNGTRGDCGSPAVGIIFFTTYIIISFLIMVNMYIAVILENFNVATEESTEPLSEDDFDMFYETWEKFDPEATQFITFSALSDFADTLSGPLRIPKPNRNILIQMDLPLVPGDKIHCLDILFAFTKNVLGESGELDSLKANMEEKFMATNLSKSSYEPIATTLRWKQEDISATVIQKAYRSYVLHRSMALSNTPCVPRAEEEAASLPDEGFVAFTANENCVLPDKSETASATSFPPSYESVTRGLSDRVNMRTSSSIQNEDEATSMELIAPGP
pIC50: −log10 of the molar value.

Here are 4 compounds together with their reported answers.
1) Cc1c(C(C)(F)F)nn(CC2(C)CC(F)(F)CC2C)c1C(=O)Nc1ccnc(C(N)=O)c1 (single isomer, unassigned) [Example 10a] :: ≥ 7.00
2) NC(=O)c1cc(NC(=O)c2c(C(F)(F)F)cnn2CC23CCC(C2)C3)ccc1F [Example 42] :: ≥ 7.00
3) Cc1c(C(C)(F)F)nn(CC2(C)CC(F)(F)CC2C)c1C(=O)Nc1ccnc(S(N)(=O)=O)c1 (single isomer, unassigned) [Example 43a] :: ≥ 7.00
4) NS(=O)(=O)c1cccc(NC(=O)c2c(C(F)(F)F)cnn2CC23CCC(C2)C3)c1 [Example 35] :: ≥ 7.00

Now consider a different compound.
Asked: Quote pIC50 reported for NC(=O)c1cc(NC(=O)c2c(C(F)(F)F)cnn2CC2CC3(CC3)C2)ccc1F [Example 41] please.
Given back: 6.00 to 7.00
